- target.or.system: G1 APOL1 (Homo sapiens, UniProt O14791, I384M/S342G)
- Construct: expressed in transfected cells
- Sequence (O14791 28-398 S342G/I384M): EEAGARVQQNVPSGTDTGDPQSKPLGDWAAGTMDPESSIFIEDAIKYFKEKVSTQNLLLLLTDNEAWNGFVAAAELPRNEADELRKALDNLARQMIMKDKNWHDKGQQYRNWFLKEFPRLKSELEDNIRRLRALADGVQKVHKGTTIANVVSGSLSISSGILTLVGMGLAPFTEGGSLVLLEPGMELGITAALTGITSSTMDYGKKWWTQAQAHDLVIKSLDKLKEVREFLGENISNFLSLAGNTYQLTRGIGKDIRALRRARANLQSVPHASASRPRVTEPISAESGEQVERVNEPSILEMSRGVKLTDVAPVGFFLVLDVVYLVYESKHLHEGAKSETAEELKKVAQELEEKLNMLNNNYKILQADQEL
- assay.notes: Acute APOL1 Thallium Assay with Inducible Stable Clones of HEK 293 Cells
- Format: cell-based
- settings: HEK 293 inducible stable clones, G1 APOL1; read-out: Thallium Assay (IC50)
observed.property: IC50

# lookup: IC50 of CC(C)(C)OC(=O)NCC(=O)NCCc1c(-c2ccc(F)cc2)[nH]c2c(F)cc(F)cc12 > 1 µM

For O=C(CCc1c(-c2ccc(F)cc2)[nH]c2c(F)cc(F)cc12)NCc1ccc(Cl)s1 , what is its reported IC50? > 1 µM

Field request: IC50 | item: CC(CCO)NC(=O)OCCc1c(-c2ccc(F)cc2)[nH]c2c(F)cc(F)cc12 (racemic) 0.25 to 1 µM

If you can, please state the reported IC50 value of O=C(CCO)NCCc1c(-c2ccc(F)cc2)[nH]c2c(F)cc(F)cc12 . 0.25 to 1 µM

Which value of IC50 has been reported for CC(C)(C)OC(=O)NC1CCC(NC(=O)CCc2c(-c3ccc(F)cc3)[nH]c3ccc(F)cc23)C1 (stereo not shown) in the records? > 1 µM

Which IC50 is reported for this compound? O=C(NC1CC(F)(F)C1)OCCc1c(-c2ccc(F)cc2)[nH]c2c(F)cc(F)cc12 0.25 to 1 µM

Entry CN(CCO)C(=O)CCc1c(-c2ccc(F)cc2)[nH]c2c(F)cc(F)cc12 has what IC50? > 1 µM

// returns reported IC50 for input C[C@@H](CO)NC(=O)CCc1c(-c2ccc(F)cc2)[nH]c2ccc(F)cc12 > 1 µM

Fill blank: measured IC50 of the compound CC(C)(O)CCNC(=O)NCCc1c(-c2ccc(F)cc2)[nH]c2c(F)cc(F)cc12 is ____. > 1 µM

Consider the compound CC1(NC(=O)CCc2c(-c3ccc(F)cc3)[nH]c3c(F)cc(F)cc23)CCOC1=O (racemic) and give its measured IC50. > 1 µM

Please report the recorded IC50 for O=C(NCCc1c(-c2ccc(F)cc2)[nH]c2c(F)cc(F)cc12)NC1(CCO)CC1 . 0.25 to 1 µM

Can you look up the measured IC50 of NC(=O)C(=O)NCCc1c(-c2ccc(F)cc2)[nH]c2c(F)cc(F)cc12 for me? 0.25 to 1 µM

If you can, please state the reported IC50 value of NC1CCC(NC(=O)CCc2c(-c3ccc(F)cc3)[nH]c3ccc(F)cc23)C1 (stereo not shown) . > 1 µM

I am curious: what IC50 value has been reported for C#CC(CO)CNC(=O)CCc1c(-c2ccc(F)cc2)[nH]c2c(F)cc(F)cc12 (stereo not shown) ? 0.25 to 1 µM

Query (compound): C[C@H](O)CNC(=O)OCCc1c(-c2ccc(F)cc2)[nH]c2c(F)cc(F)cc12 ; field requested: IC50 0.25 to 1 µM

Consider the compound CC(O)CCNC(=O)NCCc1c(-c2ccc(F)cc2)[nH]c2c(F)cc(F)cc12 (stereo not shown) and give its measured IC50. > 1 µM

----------
- target.or.system: G1 APOL1 (Homo sapiens, UniProt O14791, I384M/S342G)
- Construct: expressed in transfected cells
- assay.notes: Acute APOL1 Thallium Assay with Inducible Stable Clones of HEK 293 Cells
- Type: cell-based
- settings: HEK 293 inducible stable clones, G1 APOL1; read-out: Thallium Assay (IC50)
Task for the reader: assign each of the following compounds its reported IC50.

Quick one: IC50 for CC(CC#N)NC(=O)NCCc1c(-c2ccc(F)cc2)[nH]c2c(F)cc(F)cc12 (racemic) ? < 250 nM

May I ask what IC50 has been recorded for O=C(NC[C@H](O)CO)OCCc1c(-c2ccc(F)cc2)[nH]c2c(F)cc(F)cc12 ? 250 to 1000 nM

Recorded IC50 for O=C(N[C@H]1CCOC1)OCCc1c(-c2ccc(F)cc2)[nH]c2c(F)cc(F)cc12 , please? 250 to 1000 nM

Entry under review: CC(=O)NCCSc1c(-c2ccc(F)cc2)[nH]c2c(F)cc(F)cc12 . Reported IC50? < 250 nM

Name the recorded IC50 for O=C(CCc1c(-c2ccc(F)cc2)[nH]c2c(F)cc(F)cc12)NC1CCCNC1=O (stereo not shown) . > 1000 nM

Form field: reported IC50 of O=C(CCc1c(-c2ccc(F)cc2)[nH]c2c(F)cc(F)cc12)NC1C(=O)Nc2ccc(F)cc21 (stereo not shown) > 1000 nM

Recorded IC50 of O=C(NCCc1c(-c2ccc(F)cc2)[nH]c2c(F)cc(F)cc12)[C@H]1CC[C@@H](O)CC1 , please. > 1000 nM

For the compound CC(C)(NC(=O)CCc1c(-c2ccc(F)cc2)[nH]c2ccc(F)cc12)C(N)=O , what IC50 is on record? 250 to 1000 nM

State the recorded IC50 for this entry: O=C(NCCc1c(-c2ccc(F)cc2)[nH]c2c(F)cc(F)cc12)C1(CO)CC1 < 250 nM

Need IC50, item O=C1CCC(NC(=O)CCc2c(-c3ccc(F)cc3)[nH]c3c(F)cc(F)cc23)C(=O)N1 (stereo not shown) > 1000 nM

// returns reported IC50 for input O=C(CCc1c(-c2ccc(F)cc2)[nH]c2ccc(F)cc12)N[C@H]1C[C@H](O)C1 > 1000 nM

State the recorded IC50 for this entry: C[C@@H](O)CNC(=O)OCCc1c(-c2ccc(F)cc2)[nH]c2c(F)cc(F)cc12 < 250 nM

For the compound shown here, NC(=O)[C@@H](CO)NC(=O)CCc1c(-c2ccc(F)cc2)[nH]c2c(F)cc(Cl)cc12 , give the reported IC50. > 1000 nM

Given the compound COc1ccc2[nH]c(-c3ccc(F)cc3)c(CCNC(=O)OC(C)(C)C)c2c1 , what is its reported IC50? > 1000 nM

Reported IC50 for CCOCCc1c(-c2ccc(F)cc2)[nH]c2c(F)cc(F)cc12 : what is it? > 1000 nM

May I ask what IC50 has been recorded for O=C1C[C@@H](NC(=O)CCCc2c(-c3ccc(F)cc3)[nH]c3c(F)cc(F)cc23)C(=O)N1 ? > 1000 nM

----------
For each of the compounds below, state its pIC50.
- target.or.system: G1 APOL1 (Homo sapiens, UniProt O14791, I384M/S342G)
- Construct: expressed in transfected cells
- assay.notes: Acute APOL1 Thallium Assay with Inducible Stable Clones of HEK 293 Cells
- Assay type: cell-based
- settings: HEK 293 inducible stable clones, G1 APOL1; read-out: Thallium Assay (IC50)
pIC50: −log10 of the molar value.

So what's the measured pIC50 for this one? CCC(C)(CO)NC(=O)CCc1c(-c2ccc(F)cc2)[nH]c2ccc(F)cc12 (racemic) < 6.00

What does the record list as pIC50 for O=C(NCCc1c(-c2ccc(F)cc2)[nH]c2c(F)cc(F)cc12)c1ccccn1 ? < 6.00

Value lookup for pIC50; key = CN(CCNC(=O)OC(C)(C)C)C(=O)CCc1c(-c2ccc(F)cc2)[nH]c2ccc(F)cc12 < 6.00

Need pIC50 of O=C(CCc1c(-c2ccc(F)cc2)[nH]c2c(F)cc(F)cc12)N1CCCC1CCO (stereo not shown) , thanks. < 6.00

Which pIC50 value belongs to CC1(NC(=O)CCc2c(-c3ccc(F)cc3)[nH]c3ccc(F)cc23)COC1 ? < 6.00

Entry under review: O=C(NCCc1c(-c2ccc(F)cc2)[nH]c2c(F)cc(F)cc12)C1CC(O)(C(F)(F)F)C1 (stereo not shown) . Reported pIC50? < 6.00

What value of pIC50 has been recorded for this entry: O=C(/C=C/c1c(-c2ccc(F)cc2)[nH]c2c(F)cc(F)cc12)N[C@H]1CCNC1=O > 6.60

# pIC50 lookup, item O=C(NCCc1c(-c2ccc(F)cc2)[nH]c2c(F)cc(F)cc12)N[C@@H](CO)C(F)(F)F 6.00 to 6.60

Bench note: what pIC50 did CC1(N)CCN(C(=O)CCc2c(-c3ccc(F)cc3)[nH]c3ccc(F)cc23)C1 (racemic) show? < 6.00

// query pIC50 value for entry O=C(Cc1nccs1)NCCc1c(-c2ccc(F)cc2)[nH]c2c(F)cc(F)cc12 < 6.00

Sample O=C(NCc1cnco1)OCCc1c(-c2ccc(F)cc2)[nH]c2c(F)cc(F)cc12 — what was its pIC50? < 6.00

Looking for the measured pIC50 of O=C(NCCc1c(-c2ccc(F)cc2)[nH]c2c(F)cc(F)cc12)C1CC1 , can you help? 6.00 to 6.60

What value of pIC50 has been reported for the following compound? O=C(CCc1c(-c2ccc(F)cc2)[nH]c2c(F)ccc(F)c12)N[C@H]1CCOC1=O 6.00 to 6.60

Which pIC50 is reported for this compound? O=C(CCc1c(-c2ccc(F)cc2)[nH]c2ccc(F)cc12)NCC1COC1 < 6.00

Fill in the blank: the reported pIC50 of NC(=O)CCC(=O)NCCc1c(-c2ccc(F)cc2)[nH]c2c(F)cc(F)cc12 is ____. < 6.00

If you can, please state the reported pIC50 value of C[C@@H](O)[C@H](CO)NC(=O)CCc1c(-c2ccc(F)cc2)[nH]c2ccc(F)cc12 . 6.00 to 6.60
